# Tested on: KB
# protocol.notes: Cytotoxicity against human KB cells
# Assay type: functional, cell-based
pIC50: −log10 of the molar value.

compound	comparison.operator	pIC50
CCC(=O)OC1=CC2=C3c4ccc(OC(=O)CC)cc4OCC3(O)CC2=CC1=O (configuration not stated)	=	5.11
COc1ccc2c(c1)OCC1(OC1c1ccc(OC)c(OC)c1)C2=O (configuration not stated)	=	5.01
COc1ccc2c(c1)OCC(O)(Cc1ccc(OC)c(OC)c1)C2O (configuration not stated)	<	4.70
COc1ccc2c(c1)OC/C(=C\c1ccc(OC)c(OC)c1)C2=O	<	4.70
CCOC1=CC2=C3c4ccc(OCC)cc4OCC3(OCC)CC2=CC1=O (configuration not stated)	=	4.72
CC(=O)OC1=CC2=C3c4ccc(OC(C)=O)cc4OCC3(O)CC2=CC1=O (configuration not stated)	=	5.00
CCOC1=CC2=C3c4ccc(OCC)cc4OCC3(O)CC2=CC1=O (configuration not stated)	=	4.95
COc1ccc2c(c1)OCC1(O)Cc3cc(OC)c(OC)cc3C21 (configuration not stated)	=	4.98
COC1=CC2=C3c4ccc(OC)cc4OCC3(OC)CC2=CC1=O (configuration not stated)	=	4.82
CC(=O)O[C@H]1C(=O)[C@@]2(C)[C@H]([C@H](OC(=O)c3ccccc3)[C@]3(O)C[C@H](OC(=O)[C@H](O)[C@@H](NC(=O)c4ccccc4)c4ccccc4)C(C)=C1C3(C)C)[C@]1(OC(C)=O)CO[C@@H]1C[C@@H]2O	=	8.81
C=CCOC1=CC2=C3c4ccc(OCC=C)cc4OCC3(O)CC2=CC1=O (configuration not stated)	=	5.27
CCC(=O)OC1=CC2=C3c4ccc(OC(=O)CC)cc4OCC3(OC(=O)CC)CC2=CC1=O (configuration not stated)	=	5.18

* * *

IC50 listing for selected compounds.
# System: DU-145
# protocol.notes: Cytotoxicity against human DU145 cells
# Assay type: functional, cell-based
observable: IC50

> print(dat)
                                   compound  test.target  readout.value
1  COc1ccc2c(c1)OCC(O)(Cc1ccc(OC)c(OC)c1)C2O (stereo not given)       DU-145        > 20 µM
2  CCOC1=CC2=C3c4ccc(OCC)cc4OCC3(OCC)CC2=CC1=O (stereo not given)       DU-145        18.1 µM
3  C=CCOC1=CC2=C3c4ccc(OCC=C)cc4OCC3(O)CC2=CC1=O (stereo not given)       DU-145         9.1 µM
4  COc1ccc2c(c1)OC/C(=C\c1ccc(OC)c(OC)c1)C2=O       DU-145        > 20 µM
5  CCC(=O)OC1=CC2=C3c4ccc(OC(=O)CC)cc4OCC3(OC(=O)CC)CC2=CC1=O (stereo not given)       DU-145          11 µM

* * *

pIC50 listing for selected compounds.
# Tested on: DU-145
# protocol.notes: Cytotoxicity against human DU145 cells
# Format: functional, cell-based
pIC50: −log10 of the molar value.
observable: pIC50

> print(dat)
                                   compound  test.target  observable  readout.value
1  CCOC1=CC2=C3c4ccc(OCC)cc4OCC3(O)CC2=CC1=O (stereo unspecified)       DU-145       pIC50           4.96
2  COC1=CC2=C3c4ccc(OC)cc4OCC3(OC)CC2=CC1=O (stereo unspecified)       DU-145       pIC50           4.76
3  COc1ccc2c(c1)OCC1(O)Cc3cc(OC)c(OC)cc3C21 (stereo unspecified)       DU-145       pIC50           4.86
4  COc1ccc2c(c1)OCC1(OC1c1ccc(OC)c(OC)c1)C2=O (stereo unspecified)       DU-145       pIC50           4.97
5  CC(=O)OC1=CC2=C3c4ccc(OC(C)=O)cc4OCC3(O)CC2=CC1=O (stereo unspecified)       DU-145       pIC50           5.09
6  CCC(=O)OC1=CC2=C3c4ccc(OC(=O)CC)cc4OCC3(O)CC2=CC1=O (stereo unspecified)       DU-145       pIC50           5.15
